Numbers sourced from patent US20250313548A1.

Molecular target: human, KCNT1 (Homo sapiens (Human), UniProt Q5JUK3)
Sequence (Q5JUK3 whole entry): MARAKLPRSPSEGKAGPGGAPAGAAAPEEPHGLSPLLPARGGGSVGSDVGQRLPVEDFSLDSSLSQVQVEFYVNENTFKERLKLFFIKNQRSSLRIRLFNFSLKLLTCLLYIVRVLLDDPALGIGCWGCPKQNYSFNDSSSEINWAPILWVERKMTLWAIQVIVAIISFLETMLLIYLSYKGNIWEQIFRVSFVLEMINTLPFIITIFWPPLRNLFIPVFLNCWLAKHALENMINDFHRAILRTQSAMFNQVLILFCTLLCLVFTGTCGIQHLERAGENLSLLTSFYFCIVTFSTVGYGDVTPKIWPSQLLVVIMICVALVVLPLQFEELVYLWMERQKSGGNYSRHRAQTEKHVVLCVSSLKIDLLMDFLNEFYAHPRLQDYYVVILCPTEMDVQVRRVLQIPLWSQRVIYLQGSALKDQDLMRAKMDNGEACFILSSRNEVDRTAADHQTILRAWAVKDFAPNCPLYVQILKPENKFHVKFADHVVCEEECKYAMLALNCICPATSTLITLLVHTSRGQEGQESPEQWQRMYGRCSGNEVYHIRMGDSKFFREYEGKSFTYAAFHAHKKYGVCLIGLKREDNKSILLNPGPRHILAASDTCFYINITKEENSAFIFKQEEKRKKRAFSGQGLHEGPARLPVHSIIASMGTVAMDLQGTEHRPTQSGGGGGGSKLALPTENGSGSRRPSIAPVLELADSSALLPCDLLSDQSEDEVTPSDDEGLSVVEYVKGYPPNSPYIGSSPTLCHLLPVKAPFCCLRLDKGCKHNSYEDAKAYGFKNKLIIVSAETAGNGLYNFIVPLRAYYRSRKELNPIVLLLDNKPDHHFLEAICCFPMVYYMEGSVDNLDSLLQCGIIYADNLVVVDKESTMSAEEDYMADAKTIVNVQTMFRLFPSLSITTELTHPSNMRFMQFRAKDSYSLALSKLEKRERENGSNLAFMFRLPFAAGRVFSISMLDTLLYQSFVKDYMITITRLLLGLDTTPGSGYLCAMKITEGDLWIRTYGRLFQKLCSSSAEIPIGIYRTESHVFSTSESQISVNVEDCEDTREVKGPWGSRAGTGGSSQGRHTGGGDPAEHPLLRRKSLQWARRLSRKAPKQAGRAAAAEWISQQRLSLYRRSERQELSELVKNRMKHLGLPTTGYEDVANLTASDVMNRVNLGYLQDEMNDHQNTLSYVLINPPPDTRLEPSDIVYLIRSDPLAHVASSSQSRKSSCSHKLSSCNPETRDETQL
Assay: FLIPR Tl/K Flux Assay
Settings: HEK293 cells stably expressing human KCNT1; Tl+ flux stimulated with EC80 of agonist Loxapine
pIC50: −log10 of the molar value.
Property Name: pIC50

> print(dat)
                                   compound                             target.entity  assay.value
1  O=C(N[C@H]1CCCn2nc(-c3ccnc(C(F)(F)F)c3)cc21)c1cc(C(F)(F)F)nn1C1CC1 [Compound I-371a]  human, KCNT1 (Homo sapiens (Human), UniProt Q5JUK3)       > 6.60

Now consider a different compound.
Qu. # query: pIC50 of entry Cn1nc(C(F)(F)F)cc1C(=O)N[C@H]1CCCc2sc(-c3ccnc(C(F)(F)F)c3)cc21 [Compound I-79a]
Ans. > 6.60

====

Quick list: pIC50 per entry.
Biological target: UniProt Q5JUK3
Test: FLIPR Tl/K Flux Assay
Settings: HEK293 cells stably expressing human KCNT1; Tl+ flux stimulated with EC80 of agonist Loxapine
pIC50: −log10 of the molar value.

> print(dat)
                                   compound  property.name  assay.value
1  O=C(N[C@H]1CCCc2nc(-c3ccnc(C4CC4)c3)oc21)c1ccnc(OC(F)(F)F)c1 [Compound I-169a]          pIC50       > 6.60

Qu. Please give the measured pIC50 for this compound: Cn1nc(C(F)(F)F)cc1C(=O)N[C@@H]1CCCc2cc(-c3ccnc(C(F)(F)F)c3)[nH]c21 [Compound I-475b]
Ans. < 6.00

Qu. Form field: reported pIC50 of CC(F)(F)c1cc(-c2nc3c(o2)CCC[C@H]3NC(=O)c2cccc(F)c2)ccn1 [Compound I-508b]
Ans. < 6.00

Qu. Name the reported pIC50 value associated with the compound O=C(N[C@H]1CCCn2nc(-c3ccnc(C4CC4)c3)cc21)c1ccnc(C(F)(F)F)c1 [Compound I-496a]
Ans. > 6.60

Qu. Can you share its pIC50? I mean this compound: Cc1ccccc1C(=O)N[C@H]1CCc2nn(-c3ccnc(C(F)(F)F)c3)cc21 [Compound I-92a]
Ans. > 6.60

Qu. Look up pIC50 for this compound: O=C(N[C@H]1CCn2nc(-c3ccnc(C(F)(F)F)c3)cc21)c1cn(C(F)(F)F)nc1C(F)(F)F [Compound I-521a]
Ans. > 6.60

Qu. If you can, please state the reported pIC50 value of Cn1nc(C(F)(F)F)cc1C(=O)N[C@@H]1CCCCn2nc(-c3cc(C(F)(F)F)ncc3F)cc21 [Compound I-476b] .
Ans. 6.30 to 6.60

====

Reported pIC50 values for a set of molecules
Target: human, KCNT1 (Homo sapiens (Human))
Test: FLIPR Tl/K Flux Assay
Settings: HEK293 cells stably expressing human KCNT1; Tl+ flux stimulated with EC80 of agonist Loxapine
pIC50: −log10 of the molar value.

> print(dat)
                                   molecule                        target.entity   assay.value
1  Cc1cc(C)cc(C(=O)N[C@@H]2CCc3nn(-c4ccnc(C(F)(F)F)c4)cc32)c1 [Compound I-372b]  human, KCNT1 (Homo sapiens (Human))  6.00 to 6.30
2  Cn1nc(C(F)(F)F)cc1C(=O)N[C@H]1CCc2nn(-c3ccnc(C(C)(C)O)c3)cc21 [Compound I-76a]  human, KCNT1 (Homo sapiens (Human))        < 6.00
3  O=C(N[C@H]1CCCc2nn(-c3ccnc(C(F)(F)F)c3)cc21)c1cc(Cl)cc(C(F)(F)F)c1 [Compound I-2a]  human, KCNT1 (Homo sapiens (Human))        > 6.60
4  O=C(N[C@H]1CCn2nc(-c3ccnc(C4CC4)c3)cc21)c1cc2cccnn2c1 [Compound I-279a]  human, KCNT1 (Homo sapiens (Human))        > 6.60
5  Cn1nc(C(F)(F)F)cc1C(=O)N[C@@H]1CCCc2cn(-c3ccnc(C(F)(F)F)c3)nc21 [Compound I-87b]  human, KCNT1 (Homo sapiens (Human))        < 6.00

Qu. Please report the recorded pIC50 for Cn1nc(-c2ccccc2)cc1C(=O)N[C@H]1CCCn2nc(-c3ccnc(C(F)(F)F)c3)cc21 [Compound I-351a] .
Ans. > 6.60

Qu. Reported pIC50, molecule Cn1nc(C(F)(F)F)cc1C(=O)N[C@H]1CCc2nn(-c3ccnc(C4CCC4)c3)cc21 [Compound I-72a] : ____
Ans. > 6.60

Qu. pIC50 for O=C(N[C@H]1CCCc2cnc(-c3ccnc(C(F)(F)F)c3)cc21)c1cncc(C(F)(F)F)n1 (single isomer, unassigned) [I-270*] ?
Ans. < 6.00

Qu. Find the recorded pIC50 belonging to C#Cc1cc(-n2cc3c(n2)CC[C@H]3NC(=O)c2cc(C(F)(F)F)nn2C)ccn1 [Compound I-78b] and report it.
Ans. < 6.00

Qu. What value of pIC50 has been recorded for this entry: Cn1nc(C(F)(F)F)cc1C(=O)N[C@H]1CCCc2nn(-c3ccnc(C4CC4)c3)cc21 [Compound I-48a]
Ans. > 6.60

Qu. Fill in: pIC50 of Cn1nc(C(F)(F)F)cc1C(=O)N[C@@H]1CCn2nc(-c3ccnc(C4CC4)c3)cc21 [Compound I-68b] is ___
Ans. 6.00 to 6.30

Qu. Could you tell me which pIC50 is on file for Cn1nc(C(F)(F)F)cc1C(=O)NC1CCCc2nn(-c3cc[nH]c(=O)c3)cc21 (racemic) [Compound I-35] ?
Ans. < 6.00

Qu. Name the recorded pIC50 for O=C(N[C@H]1CCCc2cnc(-c3ccnc(C(F)(F)F)c3)cc21)c1cc(F)cc(F)c1 [Compound I-461a] .
Ans. > 6.60

Qu. Given the molecule O=C(N[C@H]1CCn2nc(-c3ccnc(C(F)(F)F)c3)cc21)C12CC(CC(F)(F)F)(C1)C2 [Compound I-583a] , what is its reported pIC50?
Ans. > 6.60

Qu. Entry COc1cc(-n2cc3c(n2)CC[C@@H]3NC(=O)c2cc(C(F)(F)F)nn2C)cc(C)n1 [Compound I-336a] : reported pIC50 = ?
Ans. 6.00 to 6.30
